Entry source: the supplement of paper PMC10307832

Tested on: UMC-11
assay: relative viability (nuclei count vs DMSO), 5 days (fraction); higher = more cells survive
runParameters: first compound 0.1 µM
Listed compounds paired with reported relative viability

[
  {
    "compound": "O=c1cc(N2CCOCC2)oc2c(-c3cccc4c3sc3ccccc34)cccc12 + N=C(N)NC(=N)NCCc1ccccc1 [Phenformin] (partner 250 µM)",
    "relative viability": 0.353
  },
  {
    "compound": "O=c1cc(N2CCOCC2)oc2c(-c3cccc4c3sc3ccccc34)cccc12 + CC(C)C[C@H](NC(=O)[C@H](Cc1ccccc1)NC(=O)c1cnccn1)B(O)O [Bortezomib] (partner 0.002 µM)",
    "relative viability": 0.72
  },
  {
    "compound": "O=c1cc(N2CCOCC2)oc2c(-c3cccc4c3sc3ccccc34)cccc12 + CCNC(=O)c1noc(-c2cc(C(C)C)c(O)cc2O)c1-c1ccc(CN2CCOCC2)cc1 [Luminespib] (partner 0.01 µM)",
    "relative viability": 1.12
  },
  {
    "compound": "O=c1cc(N2CCOCC2)oc2c(-c3cccc4c3sc3ccccc34)cccc12 + CS(=O)(=O)CCNCc1ccc(-c2ccc3ncnc(Nc4ccc(OCc5cccc(F)c5)c(Cl)c4)c3c2)o1 [Lapatinib] (partner 2 µM)",
    "relative viability": 1.17
  },
  {
    "compound": "CCN(CC)CCCCNc1ncc2cc(-c3cc(OC)cc(OC)c3)c(NC(=O)NC(C)(C)C)nc2n1 + Cc1cc(Nc2cc(N3CCN(C)CC3)nc(Sc3ccc(NC(=O)C4CC4)cc3)n2)n[nH]1 [Tozasertib] (partner 0.1 µM)",
    "relative viability": 0.204
  }
]

----------
Tested on: NCI-H2228
assay: relative viability (nuclei count vs DMSO), 5 days (fraction); higher = more cells survive
runParameters: first compound 0.2 µM
Under this convention, yes denotes relative viability strictly below 0.3 and no denotes relative viability at or above 0.3.

[
  {
    "compound": "COCC1(CO)C(=O)C2CCN1CC2 (stereo not given) [PRIMA-1MET] + O=C(c1cc(Cc2n[nH]c(=O)c3ccccc23)ccc1F)N1CCN(C(=O)C2CC2)CC1 [Olaparib] (partner 8 µM)",
    "class": "no"
  },
  {
    "compound": "COCC1(CO)C(=O)C2CCN1CC2 (stereo not given) [PRIMA-1MET] + CS(=O)(=O)CCNCc1ccc(-c2ccc3ncnc(Nc4ccc(OCc5cccc(F)c5)c(Cl)c4)c3c2)o1 [Lapatinib] (partner 2 µM)",
    "class": "no"
  },
  {
    "compound": "COCC1(CO)C(=O)C2CCN1CC2 (stereo not given) [PRIMA-1MET] + Cc1cc(Nc2cc(N3CCN(C)CC3)nc(Sc3ccc(NC(=O)C4CC4)cc3)n2)n[nH]1 [Tozasertib] (partner 0.1 µM)",
    "class": "no"
  },
  {
    "compound": "COCC1(CO)C(=O)C2CCN1CC2 (stereo not given) [PRIMA-1MET] + COc1cccc2cc(-c3nc([C@H]4CC[C@H](C(=O)O)CC4)n4ncnc(N)c34)[nH]c12 [OSI-027] (partner 0.5 µM)",
    "class": "no"
  },
  {
    "compound": "COCC1(CO)C(=O)C2CCN1CC2 (stereo not given) [PRIMA-1MET] + CCNC(=O)c1noc(-c2cc(C(C)C)c(O)cc2O)c1-c1ccc(CN2CCOCC2)cc1 [Luminespib] (partner 0.01 µM)",
    "class": "yes"
  }
]

----------
Listed compounds paired with reported relative viability
Test system: HCC-78
assay: relative viability (nuclei count vs DMSO), 5 days (fraction); higher = more cells survive
runParameters: first compound 0.8 µM

[
  {
    "compound": "O=c1cc(-c2cccc3c2Sc2ccccc2S3)oc(N2CCOCC2)c1 + C[C@@H](Oc1cc(-c2cnn(C3CCNCC3)c2)cnc1N)c1c(Cl)ccc(F)c1Cl [Crizotinib] (partner 1 µM)",
    "relative viability": 0.291
  },
  {
    "compound": "COc1nc(C)cnc1NS(=O)(=O)c1cccnc1-c1ccc(-c2nnco2)cc1 [Zibotentan] + O=C(c1cc(Cc2n[nH]c(=O)c3ccccc23)ccc1F)N1CCN(C(=O)C2CC2)CC1 [Olaparib] (partner 8 µM)",
    "relative viability": 0.719
  },
  {
    "compound": "COc1nc(C)cnc1NS(=O)(=O)c1cccnc1-c1ccc(-c2nnco2)cc1 [Zibotentan] + Cc1nc(Nc2ncc(C(=O)Nc3c(C)cccc3Cl)s2)cc(N2CCN(CCO)CC2)n1 [Dasatinib] (partner 0.075 µM)",
    "relative viability": 0.391
  },
  {
    "compound": "COc1nc(C)cnc1NS(=O)(=O)c1cccnc1-c1ccc(-c2nnco2)cc1 [Zibotentan] + NC(=O)Nc1cc(-c2cccc(F)c2)sc1C(=O)N[C@H]1CCCNC1 [AZD7762] (partner 0.2 µM)",
    "relative viability": 0.664
  }
]

----------
System: EKVX
assay: relative viability (nuclei count vs DMSO), 5 days (fraction); higher = more cells survive
runParameters: first compound 8 µM

[
  {
    "compound": "O=c1cc(-c2cccc3c2Sc2ccccc2S3)oc(N2CCOCC2)c1 + O=C(CCCCCCC(=O)Nc1ccccc1)NO [Vorinostat] (partner 1 µM)",
    "relative viability": 0.569
  },
  {
    "compound": "O=c1cc(-c2cccc3c2Sc2ccccc2S3)oc(N2CCOCC2)c1 + NC(=O)Nc1cc(-c2cccc(F)c2)sc1C(=O)N[C@H]1CCCNC1 [AZD7762] (partner 0.2 µM)",
    "relative viability": 0.717
  },
  {
    "compound": "O=c1cc(-c2cccc3c2Sc2ccccc2S3)oc(N2CCOCC2)c1 + Cc1nc(NC(=O)N2CCC[C@H]2C(N)=O)sc1-c1ccnc(C(C)(C)C(F)(F)F)c1 [Alpelisib] (partner 2 µM)",
    "relative viability": 0.755
  }
]

----------
System: BEN
assay: relative viability (nuclei count vs DMSO), 5 days (fraction); higher = more cells survive
runParameters: first compound 0.08 µM
Listed molecules paired with reported relative viability

[
  {
    "molecule": "O=c1cc(-c2cccc3c2Sc2ccccc2S3)oc(N2CCOCC2)c1 + C[C@@H](Oc1cc(-c2cnn(C3CCNCC3)c2)cnc1N)c1c(Cl)ccc(F)c1Cl [Crizotinib] (partner 1 µM)",
    "relative viability": 0.925
  },
  {
    "molecule": "COc1nc(C)cnc1NS(=O)(=O)c1cccnc1-c1ccc(-c2nnco2)cc1 [Zibotentan] + Nc1ncn([C@H]2C[C@H](O)[C@@H](CO)O2)c(=O)n1 [Decitabine] (partner 2 µM)",
    "relative viability": 0.784
  },
  {
    "molecule": "O=c1cc(-c2cccc3c2Sc2ccccc2S3)oc(N2CCOCC2)c1 + CC1(C)CCC(c2ccc(Cl)cc2)=C(CN2CCN(c3ccc(C(=O)NS(=O)(=O)c4ccc(N[C@H](CCN5CCOCC5)CSc5ccccc5)c(S(=O)(=O)C(F)(F)F)c4)cc3)CC2)C1 [Navitoclax] (partner 0.5 µM)",
    "relative viability": 0.0636
  },
  {
    "molecule": "COc1nc(C)cnc1NS(=O)(=O)c1cccnc1-c1ccc(-c2nnco2)cc1 [Zibotentan] + CCNC(=O)c1noc(-c2cc(C(C)C)c(O)cc2O)c1-c1ccc(CN2CCOCC2)cc1 [Luminespib] (partner 0.01 µM)",
    "relative viability": 0.401
  },
  {
    "molecule": "COc1nc(C)cnc1NS(=O)(=O)c1cccnc1-c1ccc(-c2nnco2)cc1 [Zibotentan] + COc1cccc2cc(-c3nc([C@H]4CC[C@H](C(=O)O)CC4)n4ncnc(N)c34)[nH]c12 [OSI-027] (partner 0.5 µM)",
    "relative viability": 0.301
  }
]

----------
Test system: NCI-H441
assay: relative viability (nuclei count vs DMSO), 5 days (fraction); higher = more cells survive
runParameters: first compound 20 µM

[
  {
    "compound": "COCC1(CO)C(=O)C2CCN1CC2 (stereo not drawn) [PRIMA-1MET] + Cc1nc(Nc2ncc(C(=O)Nc3c(C)cccc3Cl)s2)cc(N2CCN(CCO)CC2)n1 [Dasatinib] (partner 0.075 µM)",
    "relative viability": 0.134
  },
  {
    "compound": "COCC1(CO)C(=O)C2CCN1CC2 (stereo not drawn) [PRIMA-1MET] + CCNC(=O)c1noc(-c2cc(C(C)C)c(O)cc2O)c1-c1ccc(CN2CCOCC2)cc1 [Luminespib] (partner 0.01 µM)",
    "relative viability": 0.277
  },
  {
    "compound": "COCC1(CO)C(=O)C2CCN1CC2 (stereo not drawn) [PRIMA-1MET] + Nc1ncn([C@H]2C[C@H](O)[C@@H](CO)O2)c(=O)n1 [Decitabine] (partner 2 µM)",
    "relative viability": 0.169
  }
]

----------
Tested on: COR-L 105
assay: relative viability (nuclei count vs DMSO), 5 days (fraction); higher = more cells survive
runParameters: first compound 2.53 µM
Listed compounds paired with reported relative viability

[
  {
    "compound": "COc1nc(C)cnc1NS(=O)(=O)c1cccnc1-c1ccc(-c2nnco2)cc1 [Zibotentan] + CCNC(=O)c1noc(-c2cc(C(C)C)c(O)cc2O)c1-c1ccc(CN2CCOCC2)cc1 [Luminespib] (partner 0.01 µM)",
    "relative viability": 0.74
  },
  {
    "compound": "O=c1cc(-c2cccc3c2Sc2ccccc2S3)oc(N2CCOCC2)c1 + C[C@@H](Oc1cc(-c2cnn(C3CCNCC3)c2)cnc1N)c1c(Cl)ccc(F)c1Cl [Crizotinib] (partner 1 µM)",
    "relative viability": 0.798
  },
  {
    "compound": "O=c1cc(-c2cccc3c2Sc2ccccc2S3)oc(N2CCOCC2)c1 + Cc1cc(Nc2cc(N3CCN(C)CC3)nc(Sc3ccc(NC(=O)C4CC4)cc3)n2)n[nH]1 [Tozasertib] (partner 0.1 µM)",
    "relative viability": 0.363
  },
  {
    "compound": "COc1nc(C)cnc1NS(=O)(=O)c1cccnc1-c1ccc(-c2nnco2)cc1 [Zibotentan] + COc1cccc2cc(-c3nc([C@H]4CC[C@H](C(=O)O)CC4)n4ncnc(N)c34)[nH]c12 [OSI-027] (partner 0.5 µM)",
    "relative viability": 0.909
  },
  {
    "compound": "O=c1cc(-c2cccc3c2Sc2ccccc2S3)oc(N2CCOCC2)c1 + Cc1nc(NC(=O)N2CCC[C@H]2C(N)=O)sc1-c1ccnc(C(C)(C)C(F)(F)F)c1 [Alpelisib] (partner 2 µM)",
    "relative viability": 0.902
  }
]
